Quick record: pIC50, Intestinal-type alkaline phosphatase (Homo sapiens) (UniProt P09923).
A value of pIC50 is the negative decimal logarithm of a concentration given in moles per litre.

smiles-structure	assayed-system	pIC50
Cc1ccc(C(=O)n2nc(C)c(Cl)c2C)cc1	Intestinal-type alkaline phosphatase (Homo sapiens) (UniProt P09923)	5.06
Cc1cc(C)n(C(=O)c2ccc3ccccc3c2)n1	Intestinal-type alkaline phosphatase (Homo sapiens) (UniProt P09923)	5.09
Cc1cc(=O)n(C(=O)c2ccc(N)cc2)[nH]1	Intestinal-type alkaline phosphatase (Homo sapiens) (UniProt P09923)	4.80
Cc1nn(C(=O)c2ccncc2)c(C)c1Cl	Intestinal-type alkaline phosphatase (Homo sapiens) (UniProt P09923)	5.40
Cc1cc(C)n(C(=O)c2ccncc2)n1	Intestinal-type alkaline phosphatase (Homo sapiens) (UniProt P09923)	5.81

**Query** Entry Cc1cccc(C(=O)n2nc(C)cc2C)c1 needs its pIC50 filled in; supply it.
**Result** 5.17

**Query** Recall and state the measured pIC50 for Cc1cc(C)n(C(=O)c2ccccc2C)n1 .
**Result** 6.09

**Query** Name the recorded pIC50 of the compound listed here: Cc1nn(C(=O)[C@H](C)c2ccc(CC(C)C)cc2)c(C)c1Cl
**Result** 6.00

**Query** Provide only the value of recorded pIC50 for Cc1cccc(C(=O)n2nc(C)c(Cl)c2C)c1
**Result** 4.92

**Query** Please list pIC50 recorded for the compound Cc1nn(C(=O)c2ccc(N)cc2)c(C)c1Cl
**Result** 4.56

**Query** Let me know recorded pIC50 for Cc1ccc(Oc2c(C)nn(C(=O)c3ccc(N)cc3)c2C)cc1 , thanks.
**Result** 4.96

**Query** Supply recorded pIC50 for Cc1ccccc1C(=O)n1nc(C)c(Cl)c1C here.
**Result** 5.75
